- Species on record: Rattus norvegicus
- test: Selectivity ratio of IC50 for rat recombinant GLuR1 to IC50 for rat recombinant NR1-NR2D receptor
quantity measured: Ratio IC50

                            structure_string  quantity_measured  censoring_operator  recorded_number
 0  COc1cccc(-n2c(/C=C/c3ccccc3[N+](=O)[O-])nc3ccccc3c2=O)c1         Ratio IC50                   =                1
 1  O=C(O)c1ccc(-n2c(/C=C/c3ccccc3)nc3ccc(I)cc3c2=O)cc1         Ratio IC50                   =                6
 2  O=c1c2ccccc2nc(/C=C/c2cccc([N+](=O)[O-])c2)n1-c1ccccc1         Ratio IC50                   =                1
 3  COc1ccccc1-n1c(/C=C/c2ccc([N+](=O)[O-])cc2)nc2ccccc2c1=O         Ratio IC50                   =                1
 4  CC(C)c1ccc2nc(/C=C/c3cccc([N+](=O)[O-])c3)n(-c3ccc(C(=O)O)cc3)c(=O)c2c1         Ratio IC50                   =               29
 5  COc1cccc(-n2c(/C=C/c3cccnc3)nc3ccc(I)cc3c2=O)c1         Ratio IC50                   =                1
 6  CSc1ccc(/C=C/c2nc3ccccc3c(=O)n2-c2ccc(C(=O)O)cc2)cc1         Ratio IC50                   =               11
 7   Cc1nc2ccc(I)cc2c(=O)n1-c1ccc(C(=O)O)cc1         Ratio IC50                   =                1
 8  O=C(O)c1ccc(-n2c(/C=C/c3cccc(C(F)(F)F)c3)nc3ccccc3c2=O)cc1         Ratio IC50                   =                2
 9  O=C(O)c1ccc(-n2c(/C=C/c3ccccc3O)nc3ccccc3c2=O)cc1         Ratio IC50                   =                2
10  O=C(O)c1ccc(-n2c(/C=C/c3cccc([N+](=O)[O-])c3)nc3ccc(O)cc3c2=O)cc1         Ratio IC50                   =               10
11  CN(C)c1ccc(/C=C/c2nc3ccccc3c(=O)n2-c2ccc(C(=O)O)cc2)cc1         Ratio IC50                   >                5
12  O=C(O)c1cccc(-n2c(/C=C/c3cccc([N+](=O)[O-])c3)nc3ccc(I)cc3c2=O)c1         Ratio IC50                   =               21
13  Cc1ccccc1-n1c(/C=C/c2cccnc2)nc2ccc(I)cc2c1=O         Ratio IC50                   =                3
14  O=C(O)c1ccc(-n2c(/C=C/c3ccccc3)nc3ccccc3c2=O)cc1         Ratio IC50                   =                1
15  O=C(O)c1ccc(-n2c(/C=C/c3cccc([N+](=O)[O-])c3)nc3c(Cl)cccc3c2=O)cc1         Ratio IC50                   =               10
16  COc1ccccc1/C=C/c1nc2ccccc2c(=O)n1-c1ccc(C(=O)O)cc1         Ratio IC50                   =                2
17  COc1ccc2nc(/C=C/c3cccc([N+](=O)[O-])c3)n(-c3cccc(C(=O)O)c3)c(=O)c2c1         Ratio IC50                   =               22
18  O=C(O)c1ccc(-n2c(/C=C/c3ccc(N4CCOCC4)cc3)nc3ccccc3c2=O)cc1         Ratio IC50                   =                1
19  O=C(O)c1ccc(-n2c(/C=C/c3cccc([N+](=O)[O-])c3)nc3ccc(Cl)cc3c2=O)cc1         Ratio IC50                   =                7
20  COc1cccc(/C=C/c2nc3ccccc3c(=O)n2-c2ccc(C(=O)O)cc2)c1         Ratio IC50                   =                3
21  O=c1c2ccccc2nc(/C=C/c2cccnc2)n1-c1ccccc1         Ratio IC50                   =                2
22  O=C(O)c1ccc(-n2c(/C=C/c3cccc(O)c3)nc3ccccc3c2=O)cc1         Ratio IC50                   =                1
23  COc1ccc2nc(/C=C/c3cccc([N+](=O)[O-])c3)n(-c3ccc(C(N)=O)cc3)c(=O)c2c1         Ratio IC50                   =                1
24  O=C(O)c1ccc(-n2c(/C=C/c3ccc(C(F)(F)F)cc3)nc3ccccc3c2=O)cc1         Ratio IC50                   =               16
25  O=C(O)c1ccc(-n2c(/C=C/c3cccc([N+](=O)[O-])c3)nc3ccc(I)cc3c2=O)cc1         Ratio IC50                   =               52
26  O=c1c2cc(I)ccc2nc(/C=C/c2cccnc2)n1-c1ccccc1[N+](=O)[O-]         Ratio IC50                   =               60
27  O=C(O)c1ccc(-n2c(/C=C/c3cccc([N+](=O)[O-])c3)nc3ccc(-c4cccs4)cc3c2=O)cc1         Ratio IC50                   =               93
28  O=C(O)c1ccc(-n2c(/C=C/c3cccc4ccccc34)nc3ccccc3c2=O)cc1         Ratio IC50                   =               14
29  O=C(O)c1ccc(/C=C/c2nc3ccccc3c(=O)n2-c2ccc(C(=O)O)cc2)cc1         Ratio IC50                   =                1
30  Cc1ccccc1/C=C/c1nc2ccccc2c(=O)n1-c1ccc(C(=O)O)cc1         Ratio IC50                   =                1
31  COc1ccc2nc(/C=C/c3cccc([N+](=O)[O-])c3)n(-c3ccc(C(=O)O)cc3)c(=O)c2c1         Ratio IC50                   >              100
32  Cc1ccc2nc(/C=C/c3ccccc3)n(-c3ccc(C(=O)O)cc3)c(=O)c2c1         Ratio IC50                   =                1
33  O=c1c2cc(I)ccc2nc(/C=C/c2cccnc2)n1-c1ccc([N+](=O)[O-])cc1         Ratio IC50                   =                1
34  O=C(O)c1ccc(-n2c(/C=C/c3cccc([N+](=O)[O-])c3)nc3cc4c(cc3c2=O)OCCO4)cc1         Ratio IC50                   =                1
35  O=C(O)c1ccc(-n2c(/C=C/c3cccc([N+](=O)[O-])c3)nc3c(Cl)cc(Cl)cc3c2=O)cc1         Ratio IC50                   =               30
36  COc1ccc2nc(/C=C/c3cccc([N+](=O)[O-])c3)n(-c3ccc(C#N)cc3)c(=O)c2c1         Ratio IC50                   =                1
